assay: Estimated solubility test: medium added stepwise at rt until the solid dissolved; type: physicochemical; conditions: water, thermodynamic from solid, water, read-out: Solubility (mg/mL) Water
Observation type: solubility

Query block: Value lookup for solubility; key = CC(C)(C)NC[C@H](O)c1cccc(C#N)n1.Cl
Result block: > 102 mg/mL

* * *

Each entry below lists one item and its recorded solubility at 0.5 h value.
experiment: Solubility testing in biorelevant media (SGF, FaSSIF, FeSSIF) and water, shaken at 37° C. for up to 24 hours; assay type: physicochemical; conditions: FeSSIF, 37 °C, fessif, thermodynamic from solid, FeSSIF, 37° C., shaken 200 rpm, 0.5 h; read-out: Solubility (mg/mL) 0.5 h

CC(C)(C)NC[C@H](O)c1cccc(C#N)n1.Cl; > 5 mg/mL

# context switch: different compound, same solubility at 0.5 h
Query block: Value lookup for solubility at 0.5 h; key = CC(C)(C)NC[C@H](O)c1cccc(C#N)n1
Result block: > 5 mg/mL

* * *

assay: Solubility testing in biorelevant media (SGF, FaSSIF, FeSSIF) and water, shaken at 37° C. for up to 24 hours; format: physicochemical; settings: SGF, FaSSIF, FeSSIF and water, 37 °C, thermodynamic from solid, SGF, FaSSIF, FeSSIF and water; about 15 mg in 3 mL; 37° C.; read-out: solubility in each medium
Each entry below lists one item and its recorded solubility value.

CC(C)(C)NC[C@H](O)c1cccc(C#N)n1 [Compound 1]; > 5000 µg/mL

Query block: Value lookup for solubility; key = CC(C)(C)NC[C@H](O)c1cccc(C#N)n1.Cl [Compound 2]
Result block: > 5000 µg/mL

* * *

assay: Solubility testing in biorelevant media (SGF, FaSSIF, FeSSIF) and water, shaken at 37° C. for up to 24 hours; type: physicochemical; conditions: FaSSIF, 37 °C, fassif, thermodynamic from solid, FaSSIF, 37° C., shaken 200 rpm, 0.5 h; read-out: Solubility (mg/mL) 0.5 h
Observation type: solubility at 0.5 h

CC(C)(C)NC[C@H](O)c1cccc(C#N)n1.Cl; > 5 mg/mL

# context switch: different compound, same solubility at 0.5 h
Query block: Value lookup for solubility at 0.5 h; key = CC(C)(C)NC[C@H](O)c1cccc(C#N)n1
Result block: > 5 mg/mL

* * *

Each entry below lists one item and its recorded solubility value.
assay: Solubility testing in biorelevant media (SGF, FaSSIF, FeSSIF) and water, shaken at 37° C. for up to 24 hours; assay type: physicochemical; details: water, 37 °C, water, thermodynamic from solid, Water, 37° C., shaken 200 rpm, 2 and 24 h; read-out: Solubility (mg/mL) 2 and 24 h

CC(C)(C)NC[C@H](O)c1cccc(C#N)n1 [Compound 9]; > 5 mg/mL

# context switch: different compound, same solubility
Query block: Value lookup for solubility; key = CC(C)(C)NC[C@H](O)c1cccc(C#N)n1.Cl [Compound 2]
Result block: > 5 mg/mL

* * *

assay: Solubility testing in biorelevant media (SGF, FaSSIF, FeSSIF) and water, shaken at 37° C. for up to 24 hours; type: physicochemical; conditions: FeSSIF, 37 °C, fessif, thermodynamic from solid, FeSSIF, 37° C., shaken 200 rpm, 2 and 24 h; read-out: Solubility (mg/mL) 2 and 24 h
Observation type: solubility

CC(C)(C)NC[C@H](O)c1cccc(C#N)n1.Cl [Compound 2]; > 5 mg/mL

# context switch: different compound, same solubility
Query block: Value lookup for solubility; key = CC(C)(C)NC[C@H](O)c1cccc(C#N)n1 [Compound 9]
Result block: > 5 mg/mL

* * *

test: Solubility testing in biorelevant media (SGF, FaSSIF, FeSSIF) and water, shaken at 37° C. for up to 24 hours; assay type: physicochemical; conditions: SGF, 37 °C, simulated gastric fluid, thermodynamic from solid, SGF, 37° C., shaken 200 rpm, 2 and 24 h; read-out: Solubility (mg/mL) 2 and 24 h
Each entry below lists one item and its recorded solubility value.

CC(C)(C)NC[C@H](O)c1cccc(C#N)n1; > 5 mg/mL

Query block: Value lookup for solubility; key = CC(C)(C)NC[C@H](O)c1cccc(C#N)n1.Cl
Result block: > 5 mg/mL

* * *

Each entry below lists one item and its recorded solubility at 0.5 h value.
assay: Solubility testing in biorelevant media (SGF, FaSSIF, FeSSIF) and water, shaken at 37° C. for up to 24 hours; type: physicochemical; conditions: SGF, 37 °C, simulated gastric fluid, thermodynamic from solid, SGF, 37° C., shaken 200 rpm, 0.5 h; read-out: Solubility (mg/mL) 0.5 h

CC(C)(C)NC[C@H](O)c1cccc(C#N)n1; > 5 mg/mL

Query block: Value lookup for solubility at 0.5 h; key = CC(C)(C)NC[C@H](O)c1cccc(C#N)n1.Cl
Result block: > 5 mg/mL

* * *

Assay: Estimated solubility test: medium added stepwise at rt until the solid dissolved
Type: physicochemical
Settings: FaSSIF, thermodynamic from solid, FaSSIF, read-out: Solubility (mg/mL) FaSSIF
Method: As all of the samples dissolved after about 2 hours, estimated solubility testing was conducted, wherein about 5 mg of Compound 1 Form A, Compound 2 Form A and Compound 9 Form A were weighed into four separate vials each and each media was added stepwise while stirring at rt until the solid dissolved.
Observation type: solubility

Query block: Value lookup for solubility; key = CC(C)(C)NC[C@H](O)c1cccc(C#N)n1.Cl
Result block: > 100 mg/mL
